System: N-terminally deleted tomato dNK enzyme (TOM-ΔNdCK/dGK)
Assay: Deoxyribonucleoside kinase activity in extract of KY895 transformed with pGEX-2T-TOM-ΔNdCK/dGK
Format: biochemical, Lycopersicum esculentum
Details: pGEX-2T-TOM-ΔNdCK/dGK
measuredParameter: ability to phosphorylate the deoxyribonucleoside (in words)

INSERT INTO assay_data (testsmiles, datavalue) VALUES
  ('Cc1cn([C@H]2C[C@H](O)[C@@H](CO)O2)c(=O)[nH]c1=O', 'not'),
  ('Nc1ccn([C@H]2C[C@H](O)[C@@H](CO)O2)c(=O)n1', 'able to phosphorylate'),
  ('Nc1ncnc2c1ncn2[C@H]1C[C@H](O)[C@@H](CO)O1', 'able to phosphorylate'),
  ('Nc1nc2c(ncn2[C@H]2C[C@H](O)[C@@H](CO)O2)c(=O)[nH]1', 'able to phosphorylate');
